- Test system: SNB-19 CNS
- Assay Explanation: NCI-60 one-dose screen, 48 h (100 = growth as untreated, 0 = no growth, -100 = all killed)
- Condition Context: 10 µM unless noted
The panel holds about 83,000 compounds, 20% with a hit somewhere; the sample as a whole holds those more often.
Response key: Yes means growth >= 90%; No means growth < 90%.

Worked examples, 5 molecules total:
Molecule	Test Target	Label
COc1cc(N2C(=O)[C@H](O)C2c2ccc(SC)cc2)cc(OC)c1OC (stereo not given in full)	SNB-19 CNS	No
COc1ccc(C2c3sc4c(F)cccc4c3Oc3nc[nH]c(=O)c32)cc1 (stereo not given)	SNB-19 CNS	No
O=C(CSc1nc2sc3c(c2c(=O)n1-c1ccccc1)CCCCC3)N/N=C/c1ccc(F)cc1	SNB-19 CNS	No
COc1ccc2c(O)c(/C=C3\N=Nc4ccccc43)oc2c1C[C@@H]1CCNC[C@H]1F	SNB-19 CNS	No
CC1(c2ccccc2O)NN=C(/N=C/c2cccc([N+](=O)[O-])c2)N1C(Cc1c[nH]c2ccccc12)C(=O)O (stereo not given)	SNB-19 CNS	Yes

Identify whether the reported growth of the following molecule is 90% or greater: CCCC(O)Cn1ncc(C(=O)OCC)c1NC(=O)NCc1ccccc1F (stereo not given)
Yes

Identify whether the reported growth of the following molecule is 90% or greater: O=S(=O)(Nc1cc(Br)c(O)c2ccccc12)c1ccc(F)cc1
Yes

###

List of growth values.
- Tested on: PC-3 prostate
- Assay Explanation: NCI-60 one-dose screen, 48 h (100 = growth as untreated, 0 = no growth, -100 = all killed)
- Condition Context: 10 µM unless noted
- Protocol: Growth inhibition of the PC-3 human tumor cell line is measured as a screen for anti-cancer activity. Cells are grown in 96 well plates and exposed to the test compound for 48 hours. Compounds are tested at a single concentration, which is 10^-5 M for most compounds. The reported endpoint is percent growth (GI% or GIPRCNT), where numbers from 0 - 100% represent growth inhibition, and numbers from -100% - 0 represent cell death. For example, a value of 40 represents 60% growth inhibition. […]
The panel holds about 83,000 compounds, 20% with a hit somewhere; the sample as a whole holds those more often.
Response body: numeric value in %, unit text excluded.

See these solved cases before continuing.
Chemical Smiles	Value Observed
COc1ccc(C(=S)N2CCN(c3ccccc3Cl)CC2)cc1OC	90.3
C/C(=C(/c1ccc(Cl)cc1)c1ccc(OCCN2CCCC2)cc1)c1ccc(Cl)cc1	66.4
O=C(CSc1nc2ccc([N+](=O)[O-])cc2[nH]1)Nc1cccc(C(F)(F)F)c1	9.66
CCS/C(Nc1ccccc1)=C(\C#N)C(=O)N/N=C/c1ccc(Cl)cc1Cl	31.5
N#Cc1c(-c2ccc(Cl)cc2)nc(SCC(=O)NC2=NN=C(c3ccccc3)CS2)[nH]c1=O	78.6
CN(CCn1sc(=O)n(Cc2ccccc2)c1=O)Cc1ccc2c(Cl)cc(Cl)c(O)c2n1	35.5

With those in mind, consider the next compound.
# growth lookup, item COc1ccc(-c2cc(-c3ccc(Cl)cc3)c(C#N)c(=O)n2CCCCC(=O)Nc2ccccc2N)cc1
50.1

###

- System: NCI-H226 lung
- Assay Explanation: NCI-60 one-dose screen, 48 h
- Condition Context: 10 µM unless noted
About 83,000 compounds went through this panel and 20% of them were active in at least one assay; those are over-represented in the sample as a whole. Active and inactive are the calls of the source. How the source made its calls: active means growth percent below 10; inactive means the rest.
Respond using exactly one of the listed classes: YES (active), NO (inactive)

Compound	Test Target	Label
O=CC1(C2(C=O)c3ccccc3-c3ccccc32)c2ccccc2-c2ccccc21	NCI-H226 lung	YES
CN(C)CC(=O)Nc1ccc2ncnc(Nc3ccc(Oc4cccc(C(F)(F)F)c4)c(Cl)c3)c2c1	NCI-H226 lung	NO
N#Cc1c(N)nnn1Cc1cc(=O)oc2c1ccc1ccccc12	NCI-H226 lung	NO
COc1cc2c(c(OC)c1OC)-c1ccc(OC)c(=O)cc1[C@@H](NC(=O)CCl)CC2	NCI-H226 lung	NO
COc1ccc2[nH]cc(-c3nc(-c4c[nH]c5ccncc45)cs3)c2c1	NCI-H226 lung	NO
c1cc2[nH]ncc2cc1-c1nc2ccc3[nH]ncc3c2c2c1CCCC2	NCI-H226 lung	NO
C=C1C(=O)O[C@H]2[C@H]1CC/C(COC(=O)CSCCSCC(=O)OC/C1=C/CC[C@@]3(C)O[C@H]3[C@H]3OC(=O)C(=C)[C@@H]3CC1)=C\CC[C@@]1(C)O[C@@H]21	NCI-H226 lung	YES
Cc1cc2c(O)c(-c3cccc(Cl)c3)c3sc(=O)oc3c2cc1C	NCI-H226 lung	NO

Recorded call for CCOC(=O)c1[nH]c(=O)c2c(C)nc(-c3ccccc3)cc2c1O ?
NO

Recorded call for O=C1NC(=O)c2c1c1c3ccccc3ccc1c1[nH]c3ccc(Br)cc3c21 ?
NO

Recorded call for COC(=O)c1cc(-c2ccc(OC)cc2)[nH]c1N/N=C/c1c(Cl)cccc1Cl ?
NO

Recorded call for C[C@H](NC(=O)[C@@H](C)N)[C@H](Oc1ccc2c(cnn2-c2ccc(F)cc2)c1)c1ccc2c(c1)OCCO2 ?
NO

Recorded call for COC(=O)c1c2c(c(C)[n+]([O-])c1C)C(=O)C=C(NCc1ccc(OC)cc1)C2=O ?
YES

Recorded call for Cn1cc(-c2nonc2-c2c[nH]c3ccc(Br)cc23)c2cc(Br)ccc21 ?
NO

Recorded call for Cc1nc2sc(C(=O)Nc3cccc(Cl)c3C)c(N)c2cc1C(=O)c1ccccc1 ?
YES

Recorded call for COc1ccc(CC(C#N)c2cc3ccccc3[nH]2)cc1 (centres undefined) ?
NO

Recorded call for COCCn1c(-c2csc(-c3cn(C)c4ccc(OC)cc34)n2)cc2cccnc21 ?
NO

###

- Test system: COLO 205 colon
- Assay Explanation: NCI-60 one-dose screen, 48 h
- Condition Context: 10 µM unless noted
About 83,000 compounds went through this panel and 20% of them were active in at least one assay; those are over-represented in the sample as a whole. Activity calls are given as the source filed them. Rule for the calls: active = growth percent below 10; inactive = the rest.
Respond using exactly one of the listed classes: active, inactive

Worked examples, 6 compounds total:
Compound	Label
Brc1ccc2[nH]cc(-c3nonc3-c3c[nH]c4ccccc34)c2c1	inactive
CCCC(=O)NC(c1ccc2c(c1)OCO2)c1ccc2cccnc2c1O (configuration not stated)	active
N#C/C(=C\c1ccc(-c2ccc(Cl)cc2)o1)C(=O)Nc1ncc(Cc2ccc(Cl)cc2)s1	inactive
CCn1c(=S)[nH]c2c(=O)n(C)c(=O)n(C)c21	inactive
CC(C)CCC[C@@H](C)[C@H]1CC[C@H]2[C@@H]3CC=C4C[C@@H](C(C(=O)O)C(=O)O)CC[C@]4(C)[C@H]3CC[C@]12C	active
N#C/C(=C\c1ccc2ccccc2c1)c1cc2ccccc2[nH]1	inactive

Please look at the following compound next.
Recorded call for COC(=O)CCC(=O)C(=O)OC ?
inactive

###

- Tested on: 786-0 renal
- Assay Explanation: NCI-60 one-dose screen, 48 h (100 = growth as untreated, 0 = no growth, -100 = all killed)
- Condition Context: 10 µM unless noted
- Experimental: Cells are grown in 96 well plates and exposed to the test compound for 48 hours. Compounds are tested at a single concentration, which is 10^-5 M for most compounds. The reported endpoint is percent growth (GI% or GIPRCNT), where numbers from 0 - 100% represent growth inhibition, and numbers from -100% - 0 represent cell death. For example, a value of 40 represents 60% growth inhibition. A value of 0 means no net growth occurred over the course of the experiment. […]
Compounds without any hit were thinned out: in the full panel of roughly 83,000, 20% have a hit. Calls of active or inactive are those of the source. How the source made its calls: active means growth percent below 10; inactive means the rest.
Outcome Measure: growth

# growth lookup, item CCCC(=O)NC(c1ccc2c(c1)OCO2)c1ccc2cccnc2c1O (stereo not given)
19.8% (inactive)

# growth lookup, item O=C(Nc1cc(Cl)ccc1O)c1ccc(Nc2ccnc(C(F)(F)F)c2)cc1
49% (inactive)

# growth lookup, item Fc1cc(F)cc(C(c2c[nH]c3ccccc23)c2c[nH]c3ccccc23)c1
98% (inactive)

# growth lookup, item O=C1c2c(c3c4ccc(Br)cc4oc3c3[nH]c4ccccc4c23)C(=O)N1O
84.8% (inactive)

# growth lookup, item N=C(N)c1ccc(-c2ccc(-c3cc(Cl)cc(Cl)c3)o2)o1
-61.9% (active)

###

- System: ACHN renal
- Assay Explanation: NCI-60 one-dose screen, 48 h (100 = growth as untreated, 0 = no growth, -100 = all killed)
- Condition Context: 10 µM unless noted
Compounds without any hit were thinned out: in the full panel of roughly 83,000, 20% have a hit.
Outcome Measure: growth (%)
Response body: numeric value in %, unit text excluded.

# growth lookup, item O=C1Nc2ccccc2/C1=C\c1nc(-c2ccccc2)n2ccccc12
71.1

# growth lookup, item COc1cc(CNC(=O)/C=C/C=C/c2ccc3c(c2)OCO3)ccc1OCc1cn(-c2ccc(C)c(C)c2)nn1
81.3

# growth lookup, item COc1ccc(C(=O)Nc2cccc(C3CC(=O)c4c(cc(OC)c(OC)c4OC)O3)c2)cc1 (centres undefined)
40.8

# growth lookup, item NC(=O)CCC(C(=O)O)N1C(=O)c2ccc(O)cc2C1=O (centres undefined)
93.1

Reference for the values: PubChem BioAssay (NCI)
